Hello, the source for this data is patent US7772429B2, in case you need it.

assay: Solubility in aqueous buffers, FaSSIF and FeSSIF (HPLC/UV); format: physicochemical; details: aqueous buffer, 25 °C, pH 4.5, aqueous buffer, thermodynamic from solid, 4 hours
value_kind: solubility at 4 h (µg/mL)
Only the number, expressed in µg/mL, is required.

For record COc1ccc([C@@H]2[C@@H](CC[C@H](O)c3ccc(F)cc3)C(=O)N2c2ccc(CNC(=O)CCCCCCCCCCC(=O)NC[C@H](O)[C@@H](O)[C@H](O)[C@H](O)CO)cc2)cc1 the listed solubility at 4 h is 4

----------
Assay: Solubility in aqueous buffers, FaSSIF and FeSSIF (HPLC/UV)
Type: physicochemical
Details: FeSSIF, 25 °C, thermodynamic from solid, 4 hours
Method: FaSSIF (fasted State Simulating Intestinal Fluid) and FeSSIF (Fed State Simulating Intestinal Fluid) media which reflect the pH/solubilization conditions in the upper small intestine in the pre- and postprandial state, respectively, were used to test this improved solubility. 0.5 mg of the compound to be tested was weighed exactly into an Eppendorf cap, and 0.5 ml of the solvent in question (aqueous buffer) was added. […]
Reported values of solubility at 4 h for individual entries
Please answer using the number first and the unit second.

What the record says about COc1ccc([C@@H]2[C@@H](CC[C@H](O)c3ccc(F)cc3)C(=O)N2c2ccc(CNC(=O)CCCCCCCCCCC(=O)NC[C@H](O)[C@@H](O)[C@H](O)[C@H](O)CO)cc2)cc1 : solubility at 4 h is 454 µg/mL

---
Value of measured solubility at 4 h for the entry COc1ccc([C@@H]2[C@@H](CC[C@H](O)c3ccc(F)cc3)C(=O)N2c2ccc(CNC(=O)CCCCCCCCCCCNC(=O)[C@H](O)[C@@H](O)[C@H](O)[C@H](O)CO)cc2)cc1 [Example C1, reference compound] : 18 µg/mL

----------
assay: Solubility in aqueous buffers, FaSSIF and FeSSIF (HPLC/UV); type: physicochemical; conditions: aqueous buffer, 25 °C, pH 6.8, aqueous buffer, thermodynamic from solid, 4 hours
value_kind: solubility at 4 h (µg/mL)
Field: numeric (µg/mL). Do not append units.

solubility at 4 h for COc1ccc([C@@H]2[C@@H](CC[C@H](O)c3ccc(F)cc3)C(=O)N2c2ccc(CNC(=O)CCCCCCCCCCC(=O)NC[C@H](O)[C@@H](O)[C@H](O)[C@H](O)CO)cc2)cc1 is 2

----------
test: Solubility in aqueous buffers, FaSSIF and FeSSIF (HPLC/UV); format: physicochemical; settings: FeSSIF, 25 °C, thermodynamic from solid; repetition of the tests
value_kind: solubility at 4 h (µg/mL)
Give the value, in units of µg/mL, as a plain number.

COc1ccc([C@@H]2[C@@H](CC[C@H](O)c3ccc(F)cc3)C(=O)N2c2ccc(CNC(=O)CCCCCCCCCCCNC(=O)[C@H](O)[C@@H](O)[C@H](O)[C@H](O)CO)cc2)cc1 [Example C1, reference compound] yielded solubility at 4 h of 20

Entry COc1ccc([C@@H]2[C@@H](CC[C@H](O)c3ccc(F)cc3)C(=O)N2c2ccc(CNC(=O)CCCCCCCCCCC(=O)NC[C@H](O)[C@@H](O)[C@H](O)[C@H](O)CO)cc2)cc1 [Example I] — recorded solubility at 4 h = 290

----------
test: Solubility in aqueous buffers, FaSSIF and FeSSIF (HPLC/UV); type: physicochemical; details: aqueous buffer, 25 °C, pH 1.2, simulated gastric fluid, thermodynamic from solid, pH 1.2 aqueous buffer, 4 hours
value_kind: solubility at 4 h (µg/mL)
Answer in µg/mL, number only, no unit symbol.

Given item COc1ccc([C@@H]2[C@@H](CC[C@H](O)c3ccc(F)cc3)C(=O)N2c2ccc(CNC(=O)CCCCCCCCCCC(=O)NC[C@H](O)[C@@H](O)[C@H](O)[C@H](O)CO)cc2)cc1 [Example I] , the value recorded as its solubility at 4 h is 3
